System: human primary cells
Test: BioMap Plus phenotypic profiling in human primary cell-based systems
Settings: 30, 10, 3.3, 1.1 μM
metric name: Cytotoxicity in BioMap Plus

compound | metric name | reported value
O=C(O)c1cc(NC(=O)c2cc(O)cc(C(=O)Nc3ccc(O)c(C(=O)O)c3)c2O)ccc1O [IIc-007a] | Cytotoxicity in BioMap Plus | not cytotoxic
O=C(O)c1cc(O)c(CN(Cc2cc(O)c(C(=O)O)cc2O)Cc2cc(O)c(C(=O)O)cc2O)cc1O [IIIc-061a] | Cytotoxicity in BioMap Plus | not cytotoxic
O=C(O)c1cc(NC(=O)c2cc(O)c(C(=O)Nc3ccc(O)c(C(=O)O)c3)cc2O)ccc1O [Ic-007a] | Cytotoxicity in BioMap Plus | not cytotoxic
O=C(O)c1cc(O)cc(CS(=O)(=O)Cc2cc(O)cc(C(=O)O)c2O)c1O [IVc-059a] | Cytotoxicity in BioMap Plus | not cytotoxic
